protocol_summary: yeast display, Sf9 membrane polyspecificity reagent, FACS + sequencing; frameworks hold sequencing errors
measurement_label: polyreactivity (PSR sort gate)

Solved entries (count: 4):
sequence_string	polyreactivity (PSR sort gate)
QVQLVDSGGGLVQAGGSLRLSCAASGGTFKYYAMGWYRQAPGKERELVAAITWSGGSTYYADSVKGRFTISRDNAKNTVYLQMNSLKPEDTAVYYCNAAYSQIRFNYWGQGTQVTVSS	high polyreactivity
QVQLVESGGGLVQAGGSLRLSCAASGSTFGANAMGWYRQAPGKEREFVAAISRSGVRTYYADTVKGRFTMSRDNAKITVYFQMNSLKPEDTAVYYCAADGYWWTYTRYDYWGQGTQVTVSS	low polyreactivity
QVQLVESGGGLVQAGGSLRLSCAASGYTFRYNAMGWYRQAPGKERELVASITFSGGRTFYADSVKGRFTISRDNAKNTVYLQMNSLKPEDTAVYYCAAVRWGRRSGGLVAEYDYWGQGTQVTVSS	high polyreactivity
QVQLVESGGGLVQAGGSLRLSCAASGLTFPYNVMGWYRQAPGKERELVASITSVGTTDYADSVKGRFTISRDNAKNTVYLQMNSLNPEDTAVYYCAADVTLFYWWYGKEDYDYWGQGTEVTVSS	low polyreactivity

**Query** Recall and state the measured polyreactivity (PSR sort gate) for QVQLVESGGGLVQAGGSLRLSCAASGRTSVIYAMGWYRPAPGKERELVAGISYRGTSTYYADSVKGRFTISRDNAKNTVYLLMNSLKPEDTAVYYCAAESYYKYFNNYDYWGQGTQVTVAS .
**Result** high polyreactivity

====

protocol_summary: yeast display, Sf9 membrane polyspecificity reagent, FACS + sequencing; frameworks hold sequencing errors
measurement_label: polyreactivity (PSR sort gate)

sequence_string	polyreactivity (PSR sort gate)
QVQLVESGGGLVQAGGSLRLSCAASGRIFFYNAMGWYRQAPGKETELVAAISSSGGSTSYADSVKGRFTISRDIAKNTVYLHMNSLKPEDTAVYYCAVDDPYYEKYDYWGQGTQVTVSS	low polyreactivity
HVQLVDSGGGLVQAGGSLRLSCAASGSIFRYYTMGWYRQAPGKERELVAAISWSGGRTYYAHSVKGRFTISRDKAKNTVYLQMNSLKPEDTAVYYCAAVRPYYYPLPTVPNLPYDYWGQGTQVTVSS	high polyreactivity
QVQLVESGGGLVQAGGSLRLSCAASGGIFGGYAMGWYRQAPGKEGELVPVITSGGSTYYADSVKARFTISRDNAKNTVYLQMNSLKPEDTAVYYCAADGHSYSYSTYDYWGQGTQVTVSS	low polyreactivity
QVQLVESGGGLVQAGGSLRLSCAASGSTFTIYAMGWYRQAPGKERELVAAITFSGDRTYYADSVKGRFTISRDNAKNTVFLQMNSLKPEDTAVYYCAAKSSTKQRKYYWGQGTQVTVSS	high polyreactivity

**Query** Recall and state the measured polyreactivity (PSR sort gate) for QVQLVESGGGLVQAGGSLRLSCAASGSTILHYAMGWYRQAPGKEREFTYYADSVKGRFTISRDNAKNTVCLQMNSLTPEDTAVYYCNADPAVSGGSIATDEYDYWVQGTQVTVSS .
**Result** low polyreactivity

====

protocol_summary: yeast display, Sf9 membrane polyspecificity reagent, FACS + sequencing; frameworks hold sequencing errors

sequence_string	polyreactivity (PSR sort gate)
QVQLVESGGGLVQAGGSLRLSCAASGLTFLYNAMGWYRRATGKERELVASITNGGSTNYADSVKGRFTISRDNEKNTVYLQMNSLKPEDTAVYYCAKAAVDVGQRTPWEYDYWGQGTQVTVSS	low polyreactivity
HVQLKESGGGLVQAGGSLRLSCAASGSIFKVVDMGLYRKAPAKEREFVANIGEGCNTYYADSVKGRFTISRDNAKNTVYLQMNSLKPEDTAVYFYAFVLGTSYRYTYWGQGTLVTVSS	low polyreactivity

====

protocol_summary: yeast display, Sf9 membrane polyspecificity reagent, FACS + sequencing; frameworks hold sequencing errors
measurement_label: polyreactivity (PSR sort gate)

sequence_string	polyreactivity (PSR sort gate)
QVQLVESGGGLVQAGGSLRLSCAASGSTFSYYNMGLYIQATGKERELLAAINRRGDSTYADSVKWRFTISRDNAKNTVYLQMNSLKPEDTAVYDCAADASVGVSGMDYWGQGTQVTVSS	low polyreactivity
QVQLVESGGRLVQAGGSLRLSCAASGFIFVGNDMAWYRQAPGKVRELVAAISSGGTTNYADSVKGRFTNSRDNAKNTVYLQMNSLKPEDTAVYDCAADYDYRQGYDSVHLDYWGQGTQVTVSS	low polyreactivity
QVQLVESGGGLVQAGGSLRLSCAASGLTFFYYAMGWYRQAPGKERELVASITWRSGSTYYADSVKGRFTISRDNAKNTVYLQMNSLKPEDTAVYYCAAYPYTYLQLMDYWGQGTQVTVSS	high polyreactivity
QVQLVESGGGLVQAGGSLRLSCAASGSIFSDYAMGWYRQAPGKERELVAAITQSGVSTYADSVKGRFTISRDNAKNTVYLQMNSLKPEDTAVYYCAADEVPGFGYPPYPWFDYWGQGTQVTVSS	low polyreactivity

**Query** Recall and state the measured polyreactivity (PSR sort gate) for QVQLVESGGGLVQAGGSLRLSCAASGRTFARYVMGWYRQAPGKERELVAAINSGGTTYYADSVKGRFTISRDNAKNTVYLQMNSLKPEDTAVYYCNARRGHYAYDYWGQGTQVTLSS .
**Result** high polyreactivity

====

protocol_summary: yeast display, Sf9 membrane polyspecificity reagent, FACS + sequencing; frameworks hold sequencing errors
measurement_label: polyreactivity (PSR sort gate)

Solved entries (count: 8):
sequence_string	polyreactivity (PSR sort gate)
QVQLVESAGGLVQAGGSLRLSCADSGSTFSPYAMGWYIDAPGKERELVAAIRSGRTSYADSVKGRFTISRDNAKNTVYLQMNSLKPEDTAVYYCAKASRVGYYWGQGTQVTESS	high polyreactivity
QVQLVESGGGLVQAGGSLRLSCAASGSISVYNAMGWYRPAPGKERELVAAISWSGGRTSYADSVKGRFTISRDHAKNTVYLQMNSLKPEDTAVYYCAADELSVLWDEDYWGQVTQVTVSS	low polyreactivity
QVQLVESGGGLVQAGGSLRLSCAASGSTFPRYAMGWYRPAPGKERELVAAISSSGRTYYADSVKGRFTISRDNAKNTVYLQMNSLNPEDTAVYYCNAPVARGEASYYWGQGTQVTVSS	high polyreactivity
QVQLVESGGGLVQAGGSLRLSCAASGSTFRWYAMGWYRQAPGKERDLVAAISARGTSTYYADSVKGRFTISRDNAKNTVYLQMNSLKPEDTAVSYCAAPQQQSWTYDGRYGYWGQGTQVTVSS	high polyreactivity
QVQLVESGGGLVQAGGSLRLSCAASGRIFYWYAMGWYRQAPGKERELVAAISSTGRTKYADSVKGRFTISRDNAKNTVDLQMNSLKPEDTAVYYCAKRRAAVNGRSDYYYWGQGTQVTVSS	high polyreactivity
QVQLVESGGGLVQAGGSLRLSCAASGRTFHRYAMGWYRQAPGKERELVAAINWRGGSTYYADSVKGRFTISRDNAKNTVYLQMNILKPEDTEVYYCAAKTTTPYRYIYYYWGQGTQVTVSS	high polyreactivity
QVQLVESGGGLVQGGGSLSLRCAASGSTFDYNAMGWYRQAPGKERDLVAVISGGSSTNYADSVKGRFTISRDNEKNTVYLQMNSLNPEDTAVYYCNARDYFVARAVSFVTYWLGVYWGQGTQVSVSS	low polyreactivity
QVQLVESGGGLVQAGGSLRLSCAASGFTFYRYAMGWYRQAPGKERELVAAISRTGGSTYYADSVKGRFTISRDNAKNTVYLQMNSLKPEDTAVYYCAAERKARTSWYGAASRYYYWGQGTQVTVSS	high polyreactivity

**Query** Recall and state the measured polyreactivity (PSR sort gate) for QVQLVESGGGLVPAGGSLRLSCAASGSTFTQNARGWYRQAPGKERELVAAISWSGARTYYADSVKGRFTISPDNANNTVYLQMNSLKPEDTAVYYCNNYARKRGTTNDYWGQGTQVTVSS .
**Result** high polyreactivity

**Query** Recall and state the measured polyreactivity (PSR sort gate) for QVQLVESGGGLVQAGGSLRLSCAASGRIFTWYTMGWYRQAPGKERELVAAINRGGSTTYADSVKGRFTISRDNAKNTVYLQMNSLKPEDTAVYSCAAYRYTSRVYSYWRGYDYWGQGTQVTVSS .
**Result** high polyreactivity

**Query** Recall and state the measured polyreactivity (PSR sort gate) for QVQLVESGGGLVQAGGSLRLSCPASGFNFPAYTMGSYRQAPGKERELVAAITSSGGNTYYADSVKGRFTISRDNAKNTVYFQMNSLKPEDTAVYYCATVSVRWPSNDHVRYDYWGQGTQVTVSS .
**Result** low polyreactivity

**Query** Recall and state the measured polyreactivity (PSR sort gate) for QVQLVESGGGLVQAGGSLRLSCAASGSIFYYYAMGWYRQAPGTERELVAAIYNGGSTYYADSVKGRFTISRDNAKNTVYLQMNSLKPEDTAVYYCNAGYSYWYRDLGYDSWGQGTQVTVSS .
**Result** low polyreactivity

Source: the nanobody polyreactivity screen of Harvey et al. (2022)
